pIC50 reference
- SYSTEM_TESTED: FAK (Mus musculus)
- Sequence (P34152 2-1052): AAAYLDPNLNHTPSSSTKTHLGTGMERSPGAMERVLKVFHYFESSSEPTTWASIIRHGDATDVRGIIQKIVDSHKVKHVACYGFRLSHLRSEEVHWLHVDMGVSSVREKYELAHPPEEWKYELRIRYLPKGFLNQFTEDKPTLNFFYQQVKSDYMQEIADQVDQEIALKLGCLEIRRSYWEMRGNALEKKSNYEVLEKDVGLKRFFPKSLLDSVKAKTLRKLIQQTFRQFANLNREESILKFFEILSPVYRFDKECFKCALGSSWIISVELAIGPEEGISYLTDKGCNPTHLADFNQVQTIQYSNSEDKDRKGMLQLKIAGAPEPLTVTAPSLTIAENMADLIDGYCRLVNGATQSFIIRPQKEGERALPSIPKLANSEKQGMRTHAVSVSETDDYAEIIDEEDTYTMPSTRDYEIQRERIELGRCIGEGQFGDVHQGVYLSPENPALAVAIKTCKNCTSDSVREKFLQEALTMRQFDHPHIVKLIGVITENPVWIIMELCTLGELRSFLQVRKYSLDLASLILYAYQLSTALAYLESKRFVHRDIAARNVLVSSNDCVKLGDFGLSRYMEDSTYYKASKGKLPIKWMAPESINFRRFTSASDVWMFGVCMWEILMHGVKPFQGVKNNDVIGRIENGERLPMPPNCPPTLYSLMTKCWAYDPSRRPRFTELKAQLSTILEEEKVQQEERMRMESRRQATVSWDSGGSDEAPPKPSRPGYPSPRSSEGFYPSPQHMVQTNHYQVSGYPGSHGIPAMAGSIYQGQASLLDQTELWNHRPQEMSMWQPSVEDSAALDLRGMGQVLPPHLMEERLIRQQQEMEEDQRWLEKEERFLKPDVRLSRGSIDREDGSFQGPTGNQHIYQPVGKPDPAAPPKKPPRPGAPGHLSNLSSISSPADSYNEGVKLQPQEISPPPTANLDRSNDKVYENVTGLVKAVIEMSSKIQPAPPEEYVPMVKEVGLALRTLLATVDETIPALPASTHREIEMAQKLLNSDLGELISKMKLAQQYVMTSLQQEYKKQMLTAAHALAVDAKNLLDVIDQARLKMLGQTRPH
- PROTOCOL_TEXT: Phos IC50 (phosphorylation)
pIC50: −log10 of the molar value.
PROPERTY_LABEL: pIC50

1. CNS(=O)(=O)c1ccccc1Nc1nc(Nc2cc(N3CCN(C)CC3)ccc2OC)ncc1Br [Example 3-84] | 6.00
2. CCC(CC)NS(=O)(=O)c1ccccc1Nc1nc(Nc2ccc(N3CCOCC3)cc2OC)ncc1Cl [Example 23-6] | 6.00
3. CNC(=O)c1ccccc1Nc1nc(Nc2ccc(N3CCOCC3)cc2OC)ncc1Cl [Example 7A] | 6.68
4. CCCS(=O)(=O)c1ccccc1Nc1nc(Nc2ccc(N3CCC(CO)CC3)cc2OC)ncc1Cl [Example 26-27] | 6.22
5. COc1cc(N2CCOCC2)ccc1Nc1ncc(Cl)c(Nc2ccccc2S(=O)(=O)N2CCOCC2)n1 [Example 14-7] | 6.70
6. CCCS(=O)(=O)c1ccccc1Nc1nc(Nc2ccc(N3CCN(C(C)C)CC3)cc2OC)ncc1Cl [Example 26-23] | 6.52
7. CNC(=O)c1ccccc1Nc1nc(Nc2ccc(N3CCC(N4CCCCC4)CC3)cc2OC)ncc1Cl [Example 7-1] | 6.22
8. CNC(=O)c1ccccc1Nc1nc(Nc2ccc(N3CCOCC3)cc2OC)ncc1Br [Example 8-2] | 6.30
9. CNS(=O)(=O)c1ccccc1Nc1nc(Nc2cc(OC)c(OC)cc2C)ncc1Cl [Example 20-35] | 7.05
10. CCOc1ccc(-c2ccccc2)cc1Nc1ncc(Br)c(Nc2ccccc2S(=O)(=O)NC)n1 [Example 3-29] | 6.22
11. CNS(=O)(=O)c1ccccc1Nc1nc(Nc2ccc(N3CCN(C)CC3)cc2OC)ncc1Cl [Example 20-6] | 6.44
12. CCCS(=O)(=O)c1ccccc1Nc1nc(Nc2ccc(N3CCNC(=O)C3)cc2OC)ncc1Cl [Example 26-22] | 7.00
13. CNC(=O)c1ccccc1Nc1nc(Nc2ccc(N3CCC(NC)C3)cc2OC)ncc1Cl (centres unmarked) [Example 7-12] | 6.05
14. COc1cc(N2CCN(CCO)CC2)ccc1Nc1ncc(Cl)c(Nc2ccccc2S(=O)(=O)C(C)C)n1 [Example 28-2] | 7.10
15. CNS(=O)(=O)c1ccccc1Nc1nc(Nc2cccc3c2ccn3CCCN2CCOCC2)ncc1Br [Example 3-45] | 7.70
16. COc1cc(N2CCC(N(C)C)C2)ccc1Nc1ncc(Cl)c(Nc2ccccc2S(=O)(=O)C(C)C)n1 (centres unmarked) [Example 28-22] | 7.00
17. CCCS(=O)(=O)c1ccccc1Nc1nc(Nc2ccc(F)cc2OC)ncc1Cl [Example 26-30] | 6.00
18. CCNC(=O)c1ccccc1Nc1nc(Nc2ccc(OC3CCN(C)CC3)cc2OC)ncc1Cl [Example 9-6] | 5.52
19. CNc1ccccc1Nc1ncc(Br)c(Nc2ccccc2S(=O)(=O)NC)n1 [Example 3-8] | 6.52
20. CNS(=O)(=O)c1ccccc1Nc1nc(Nc2ccc(F)cc2OC)ncc1Cl [Example 20-24] | 6.32
21. COc1cc(NC(C)(C)CO)ccc1Nc1ncc(Cl)c(Nc2ccccc2S(=O)(=O)NC(C)C)n1 [Example 19-23] | 6.15
22. CNS(=O)(=O)c1ccccc1Nc1nc(Nc2ccc(OCCCN3CCN(C)CC3)cc2OC)ncc1Br [Example 3-72] | 6.96
23. CNS(=O)(=O)c1ccccc1Nc1nc(Nc2cc(OC)ccc2OCCO)ncc1Br [Example 3-60] | 6.03
24. CNS(=O)(=O)c1ccccc1Nc1nc(Nc2cc(C)cc(C)c2C)ncc1Br [Example 3-16] | 5.96
25. CCC(CC)NS(=O)(=O)c1ccccc1Nc1nc(Nc2ccc(OCCN3CCN(C)CC3)cc2OC)ncc1Cl [Example 23-9] | 6.70
26. CCCS(=O)(=O)c1ccccc1Nc1nc(Nc2cc(N3CCN(C(C)=O)CC3)ccc2OC)ncc1Cl [Example 26-15] | 5.92
27. CNC(=O)c1ccccc1Nc1nc(Nc2ccc(OCCN3CCOCC3)cc2OC)ncc1Cl [Example 7-4] | 6.00
28. CNC(=O)c1cc(OC)ccc1Nc1nc(Nc2ccc(F)cc2OC)ncc1Cl [Example 16-3] | 5.52
